testTarget: UP1 R55A (human, UniProt P09651 1-196, R55A)
Sequence (P09651 1-196 R55A): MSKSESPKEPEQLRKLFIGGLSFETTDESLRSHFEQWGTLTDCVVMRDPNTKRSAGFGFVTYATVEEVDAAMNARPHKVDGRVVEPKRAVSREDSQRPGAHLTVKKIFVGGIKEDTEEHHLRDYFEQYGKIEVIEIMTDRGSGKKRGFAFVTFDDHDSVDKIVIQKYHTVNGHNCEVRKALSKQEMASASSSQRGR
testMethodNotes: ITC; ITC: 20 mM Tris-HCl pH 7.5, 150 mM NaCl, 20 C; protein 160 uM in syringe, RNA 10 uM in cell
conditionLabel: protein: recombinant; tags: C-terminal His6; single strand; crystal has 2 antiparallel strands
pKd: −log10 of the molar value.

binder: UUAGGGUUAGGG (ssRNA) [TERRA (UUAGGG)2]
pKd: 6.28
